Numbers sourced from patent EP4613859A1.

Molecular target: human MyD88 (human) (UniProt Q99836)
Experiment: P3 phage display panning on plate-immobilised MyD88, after round 4, NGS
assay_endpoint: NGS count

DTKLKKGESIAPELLR: 2460 count
KNLFNELVSKNIRTFM: 8540 count
LVAHEISKKMKIFATI: 17500 count

With those in mind, consider the next binder.
Which NGS count value belongs to KEVEGWRDALTKVASL ?
5190 count
